Values were extracted from ChEMBL document CHEMBL1926652.

Parameter pIC50: see the listing below.
Molecular target: Delta-type opioid receptor (Rattus norvegicus, UniProt P33533)
Sequence (P33533 whole entry): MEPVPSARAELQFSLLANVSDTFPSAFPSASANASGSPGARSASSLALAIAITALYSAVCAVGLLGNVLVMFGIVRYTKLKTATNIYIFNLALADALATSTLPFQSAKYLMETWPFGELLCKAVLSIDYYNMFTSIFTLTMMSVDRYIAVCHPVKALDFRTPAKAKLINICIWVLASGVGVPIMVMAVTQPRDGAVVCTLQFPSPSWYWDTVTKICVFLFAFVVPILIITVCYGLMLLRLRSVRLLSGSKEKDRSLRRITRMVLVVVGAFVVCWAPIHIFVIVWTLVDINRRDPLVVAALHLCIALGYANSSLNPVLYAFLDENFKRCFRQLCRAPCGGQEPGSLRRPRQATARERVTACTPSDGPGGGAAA
Assay: Displacement of [3H][Ile5,6]deltorphin 2 from delta opioid receptor in Wistar rat brain membrane by liquid scintillation counting
pIC50: −log10 of the molar value. Where a SMILES comes first, the peptide text is derived from it.

NC(=O)[C@@H]1CC(=O)NCCCC[C@@H](NC(=O)[C@@H](N)Cc2ccc(O)cc2)C(=O)N[C@@H](Cc2ccccc2)C(=O)N2CCC[C@@H]2C(=O)N1	< 6.00
NC(=O)[C@@H]1CCCN1C(=O)[C@H](Cc1ccccc1)NC(=O)[C@@H]1CCCN1C(=O)[C@@H](N)Cc1ccc(O)cc1 [MORPHICEPTIN] (H-YPFP-NH2)	< 6.00

Notebook: pull reported pIC50 for Delta-type opioid receptor (Rattus norvegicus, UniProt P33533), entry NC(=O)[C@@H]1CCCCNC(=O)C[C@@H](NC(=O)[C@@H](N)Cc2ccc(O)cc2)C(=O)N[C@@H](Cc2ccccc2)C(=O)N2CCC[C@@H]2C(=O)N1
< 6.00
